# Test system: recombinant NL-Rluc virus (NL4-3 with Renilla Luciferase gene) in MT-2 cells
# assay: Inhibition of HIV replication (NL-Rluc luciferase reporter virus, MT-2 cells)
# Format: cell-based, human immunodeficiency virus (HIV)
# stated conditions: NL43, 120 h, read-out: Activity
We begin with a simple list: items and their reported EC50.

The cases that follow already have their EC50 on record.
Query: Please give measured EC50 of the following entry: Cc1ccc(-c2cc3nc(C)c(C(OC(C)(C)C)C(=O)O)c(-c4cc(F)c5c(c4C)CCCO5)n3n2)cc1OCc1ccccc1 (stereo not shown)
Result: < 0.1 µM

Query: Please give measured EC50 of the following entry: Cc1nc2cc(-c3ccccc3)nn2c(-c2ccc(OCc3ccccc3)cc2)c1C(OC(C)(C)C)C(=O)O (stereo not shown)
Result: > 1 µM

New cases:
Query: Please give measured EC50 of the following entry: COc1ccc(-c2c(C(OC(C)(C)C)C(=O)O)c(C)nc3cc(-c4ccccc4)nn23)cc1OC (stereo not shown)
Result: > 1 µM

Query: Please give measured EC50 of the following entry: `COc1ccncc1-c1cccc(-c2cc3nc(C)c([C@H](OC(C)(C)C)C(=O)O)c(-c4cc(F)c5c(c4C)CCCO5)n3n2)c1`
Result: < 0.1 µM
